Biological target: T1, human Complement Factor D (CFD), purified from human serum (human, UniProt P00746 26-253)
T1 construct: serum purified (CompTech A136); also called serum purified CFD; hCFD-Comptech
T1 sequence (P00746 26-253): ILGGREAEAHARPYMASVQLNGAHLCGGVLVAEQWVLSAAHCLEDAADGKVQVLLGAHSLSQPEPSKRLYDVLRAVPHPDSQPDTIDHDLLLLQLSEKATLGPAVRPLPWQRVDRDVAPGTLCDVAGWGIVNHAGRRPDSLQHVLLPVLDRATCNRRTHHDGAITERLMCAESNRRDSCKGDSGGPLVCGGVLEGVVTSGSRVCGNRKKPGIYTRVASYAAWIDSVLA
Assay: SPR MX96, mAbs amine-coupled, CFD injected
In this section, each of the binders is paired with its reported Kd.
Write the value in nM as a bare number.

Prompt: Any idea what its Kd is? The binder is KCD136 (antibody, V domains shown) VH: EVQLQQSVAELVRPGASVKLSCSASGFNIKNTYMHWVNQRPEQGLEWIGRIDPANGITKYAPNFQGKATITADTSSNTAYLQLSNLTSEDTAIYYCTRAMDYWGQGTSVTVSS VL: QIVLTQSPAIMSASPGEKVTMTCSASSSVSYMYWYQQKPGSSPRLLIYDISNLASGVPVRFSGSGSGTSYSLTISRMEAEDAATYYCQQWDTYPWTFGGGTKLEIK
Completion: 4.46

Turning now to a further record.
Prompt: Endpoint output: Kd of KCD064 (antibody, V domains shown) VH: EVKLVESGGGLVQPGGSLKLSCAASGFTFSSYIMSWVRQTPEKRLGWVAYITSGGGSTYYPDTVKGRFTISRDNAKNTLYLQMSSLKSEDTAMYYCARHGTGYAMDYWGQGTSVTVSS VL: DIQMTQSPSSLSASLGGKVTITCKASQDINKYIAWYQHKPGKGPRLLIHYTSTLQPGIPSRFSGSGSGRDYSFSISNLEPEDIATYYCLQYDNLLYTFGGGTELEIK . Value?
Completion: 20.3
